Values compiled from PubChem BioAssay AID1159580.

- Protocol details: chemical genetic growth profiling, strain panel (AID 1159580);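 also: tested at 20 µM; growth read once vehicle control cultures reached saturation at 30 °C; 1 = growth at the plate median or of vehicle wells; lower values mean less growth of the strain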
- Condition notes: S. cerevisiae deletion strains, growth OD, locus YPL106C, strain sse1, hits give low values
In all, about 5,500 compounds went through this assay and about 2,000 (36%) were called active. About 18% were inconclusive and are not listed. The list shows a part of the results.
Answer each item with its documented normalized growth.
Answers are plain numbers.

Cc1cccc(C)c1NC(=O)C1CCCCN1C (stereo not drawn) = 0.98
C[C@@H]1CC2C3CCC4=CC(=O)C=C[C@]4(C)[C@@]3(F)[C@@H](O)C[C@]2(C)[C@@]1(O)C(=O)CO (stereo partly drawn) = 0.981
Cc1nnc(NS(=O)(=O)c2ccc(N)cc2)s1 = 1.02
CC(=O)Oc1c2c(c(CC=C(C)C)c3c1C(=O)C1=C[C@@H]4CC5C(C)(C)OC(C/C=C(\C)C(=O)O)(C4=O)[C@@]15O3)OC(C)(CCC=C(C)C)C=C2 (stereo partly drawn) = 1.02
COC(=O)/C(C)=C\CC12OC(C)(C)C3CC(C=C4C(=O)c5c(OC)c6c(c(CC=C(C)C)c5OC431)OC(C)(CCC=C(C)C)C=C6)C2=O (stereo not drawn) = 1.01

List normalized growth for every entry below, keeping the order given.
1. COc1cc(NS(C)(=O)=O)ccc1Cc1c2ccccc2nc2ccccc12
2. NCCCCC(=O)O

Resp:
1. 1.02
2. 1.03

Req: Query: normalized growth; subject: CC(=O)Oc1c2c(c3c(c1CC=C(C)C)O[C@]14C(=C[C@@H]5CC1C(C)(C)OC4(C/C=C(\C)C(=O)O)C5=O)C3=O)OC(C)(CCC=C(C)C)C=C2 (stereo partly drawn)
Resp: 0.984

###

- Protocol details: chemical genetic growth profiling, strain panel (AID 1159580);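 also: tested at 20 µM; growth read once vehicle control cultures reached saturation at 30 °C; 1 = growth at the plate median or of vehicle wells; lower values mean less growth of the strain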
- Condition notes: S. cerevisiae deletion strains, growth OD, locus YLR113W, strain HOG1
The campaign covered roughly 5,500 compounds. About 2,000 (36%) were called active. Another 18% or so got no clear call; they are omitted. No stated cut-off is given here; in the data, active means normalized growth mostly below about 0.91 (no sharp cut-off); inconclusive means no clear call, values can overlap the other calls; inactive means mostly above about 0.92. The list shows a part of the results.
Classes to choose from: 1 (active), -1 (inactive)

O=S(=O)(NCc1ccc(C(F)(F)F)cc1)c1cccc(C(F)(F)F)c1 = 1
C[C@@H]1CC2C3CCC4=CC(=O)C=C[C@]4(C)[C@@]3(F)[C@@H](O)C[C@]2(C)[C@@]1(O)C(=O)CO (some centres undefined) = -1
O=S(=O)(Nc1cc(Cl)c(Cl)cc1Cl)c1cc(C(F)(F)F)cc(C(F)(F)F)c1 = 1
O=S(=O)(NCc1ccc(C(F)(F)F)cc1)c1cc(Br)c(Br)s1 = 1
CC(C)(C)C1=C(C#N)C(c2c(Cl)cccc2Cl)C(C#N)=C(N)O1 (centres undefined) = -1
COc1cc(NS(C)(=O)=O)ccc1Cc1c2ccccc2nc2ccccc12 = -1

Req: So what was the verdict on `O=C(Oc1ccc2ccccc2c1C1SCCS1)c1ccc([N+](=O)[O-])o1` in this test?
Resp: 1

Req: Which outcome was entered for the compound `CNC(=O)Sc1c(-c2ccc(Cl)cc2)nn(C(=O)NC)c1SC` in this test?
Resp: 1

Req: Which result was noted for this compound in the test: CC(=O)OCC(=O)[C@@]1(O)CCC2C3CCC4=CC(=O)C=CC4(C)C3[C@@H](O)C[C@@]21C (some centres undefined)
Resp: -1

###

- Protocol details: chemical genetic growth profiling, strain panel (AID 1159580);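 also: tested at 20 µM; growth read once vehicle control cultures reached saturation at 30 °C; 1 = growth at the plate median or of vehicle wells; lower values mean less growth of the strain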
- Condition notes: S. cerevisiae deletion strains, growth OD, locus YNL322C, strain KRE1 (second series)
The whole screen tested about 5,500 compounds, of which about 2,000 (36%) were called active. Another 18% or so got no clear call; they are omitted. No stated cut-off is given here; in the data, active means normalized growth mostly below about 0.91 (no sharp cut-off); inconclusive means no clear call, values can overlap the other calls; inactive means mostly above about 0.92. Some of the results follow.
Output constraint: value belongs to active, inactive

Reference set, count: 4
C[C@@H]1CC[C@H]2C(C)(C)C3CC12CC[C@@]3(C)O (stereo partly specified) = inactive
Nc1nc(F)nc2c1ncn2[C@@H]1O[C@H](COP(=O)(O)O)[C@@H](O)[C@@H]1O = inactive
CC1OC(O[C@H]2/C=C/C=C/C=C/C=C/C=C/C=C/C=C/[C@H](C)[C@@H](O)[C@@H](C)[C@H](C)OC(=O)CC(O)CC(O)CCC(O)C(O)CC(O)C[C@]3(O)C[C@H](O)C(C(=O)O)C(C2)O3)C(O)[C@H](N)C1O (stereo partly specified) = active
CC(=O)N[C@@H](CCC(=O)O)C(=O)O = inactive

Req: // return assay outcome for CC1[C@H](C)OC(=O)CC(O)CC(O)CC(O)CCC(O)C(O)C[C@]2(O)CC(O)C(C(=O)O)C(CC(OC3O[C@H](C)[C@@H](O)[C@H](N)[C@@H]3O)/C=C/C=C/C=C/C=C/CC/C=C/C=C/[C@H](C)[C@H]1O)O2 (stereo partly specified)
Resp: active

Req: Just curious, what result did CC1C/C=C/C=C/C=C/C=C/C(O[C@@H]2O[C@H](C)[C@@H](O)[C@H](N)[C@@H]2O)CC2OC(O)(CC(O)CC3OC3/C=C/C(=O)O1)CC(O)C2C(=O)O (stereo partly specified) get here?
Resp: inactive
